# subject of test: KDR (Homo sapiens, UniProt P35968)
# Construct: expressed in transfected cells; host or cells: NIH3T3
# Sequence (P35968 20-1356): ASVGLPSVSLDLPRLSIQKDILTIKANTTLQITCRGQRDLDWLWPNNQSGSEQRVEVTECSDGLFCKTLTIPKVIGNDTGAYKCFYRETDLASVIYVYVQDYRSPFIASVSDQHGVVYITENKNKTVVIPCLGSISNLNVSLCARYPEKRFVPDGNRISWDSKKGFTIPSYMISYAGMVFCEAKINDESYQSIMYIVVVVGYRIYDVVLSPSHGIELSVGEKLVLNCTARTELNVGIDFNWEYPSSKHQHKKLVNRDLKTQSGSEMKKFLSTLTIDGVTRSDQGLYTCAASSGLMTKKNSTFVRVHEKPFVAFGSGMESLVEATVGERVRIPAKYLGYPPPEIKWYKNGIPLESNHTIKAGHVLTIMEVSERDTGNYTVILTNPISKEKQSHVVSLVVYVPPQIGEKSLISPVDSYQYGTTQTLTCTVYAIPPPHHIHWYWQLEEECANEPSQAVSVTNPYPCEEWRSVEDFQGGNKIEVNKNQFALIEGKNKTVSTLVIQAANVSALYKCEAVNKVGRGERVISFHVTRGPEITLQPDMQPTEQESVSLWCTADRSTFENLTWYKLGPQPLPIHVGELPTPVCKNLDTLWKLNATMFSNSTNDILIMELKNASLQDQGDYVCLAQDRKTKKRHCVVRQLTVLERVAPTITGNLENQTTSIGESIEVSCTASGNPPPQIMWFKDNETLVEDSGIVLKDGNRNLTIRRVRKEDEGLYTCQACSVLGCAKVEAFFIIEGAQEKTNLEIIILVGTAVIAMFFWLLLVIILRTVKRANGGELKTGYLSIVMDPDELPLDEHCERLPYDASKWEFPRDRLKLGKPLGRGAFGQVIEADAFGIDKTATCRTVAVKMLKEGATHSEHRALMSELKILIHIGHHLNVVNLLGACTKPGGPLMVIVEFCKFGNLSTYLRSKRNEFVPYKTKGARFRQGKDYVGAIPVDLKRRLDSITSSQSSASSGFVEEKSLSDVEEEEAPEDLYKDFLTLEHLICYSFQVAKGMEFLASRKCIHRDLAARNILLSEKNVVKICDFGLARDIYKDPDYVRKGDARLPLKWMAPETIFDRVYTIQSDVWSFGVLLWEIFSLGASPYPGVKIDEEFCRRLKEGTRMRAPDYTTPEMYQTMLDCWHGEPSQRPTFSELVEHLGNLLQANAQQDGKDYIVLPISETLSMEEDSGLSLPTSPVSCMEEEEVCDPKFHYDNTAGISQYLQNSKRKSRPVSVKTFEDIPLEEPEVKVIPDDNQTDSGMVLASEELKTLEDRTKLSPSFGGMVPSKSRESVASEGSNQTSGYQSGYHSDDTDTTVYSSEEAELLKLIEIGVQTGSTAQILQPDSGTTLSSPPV
# test details: (125I)-VEGF binding inhibition on NIH3T3 cells in which KDR was forced to be expressed
# applied conditions: KDR-expressing NIH3T3 cells, (125I)-VEGF 25 pM, 90 minutes; Table 21; read-out: IC50 (concentration of 50% binding inhibition)
Threshold 300 nM. IC50 below it: class 1. IC50 at it or above: class 0.

> print(dat)
                          structure.notation    label
 1  CCCCCCCCCCCCCCCCCCOc1ccc(OCC(=O)Nc2ccc(SC)c(C(=O)O)c2)cc1  class 1
 2  CCCCCCCCCCCCCCCCCCOc1ccc(CCC(=O)N(C)c2ccc(SC)c(C(=O)O)c2)cc1  class 1
 3  CCCCCCCCCCCCCCCCCCOc1ccc(CCC(=O)N(CC2CC2)c2ccc(SC)c(C(=O)O)c2)cc1  class 0
 4  CCCCCCCCCCCCCCCCCC(=O)Nc1ccccc1CC(=O)Nc1ccc(SC)c(C(=O)O)c1  class 0
 5  CCCCCCCCCCCCCCCCCCOc1ccc(CCC(=O)N(CC)c2ccc(SC)c(C(=O)O)c2)cc1  class 1
 6  CCCCCCCCCCCCCCCCCCOc1ccc(CC(=O)N(C)c2ccc(SCCCO)c(C(=O)O)c2)cc1  class 0
 7  CCCCCCCCCCCCCCCCCCNc1ccc(CCC(=O)Nc2ccc(SC)c(C(=O)O)c2)cc1  class 0
 8  CCCCCCCCCCCCOc1ccc(OCCCCCCCC(=O)Nc2ccc(SC)c(C(=O)O)c2)cc1  class 0
 9  CCCCCCCCCCCCCCCCCCOc1ccc(CC(=O)N(C)c2ccc(SC)c(C(=O)O)c2)cc1  class 0
10  CCCCCCCCCCCCCCCCCCOc1ccc(CC(=O)N(C)c2ccc(SCC)c(C(=O)O)c2)cc1  class 0
11  CCCCCCCCCCCCCCCCOc1ccc(OCCCC(=O)Nc2ccc(SC)c(C(=O)O)c2)cc1  class 1
12  CCCCCCCCCCCCCCCCOc1ccc(CC(=O)Nc2ccc(SC)c(C(=O)O)c2)cc1  class 0
13  CCCCCCCCCCCCCCCCCCOc1ccc(C=CC(=O)N(C)c2ccc(SC)c(C(=O)O)c2)cc1  class 1
14  CCCCCCCCCCCCCCCCCCOc1ccc(CCC(=O)Nc2ccc(SC)c(C(=O)O)c2)cc1  class 1
15  CCCCCCCCCCCCCCCCCC(=O)Nc1cccc(CC(=O)Nc2ccc(SC)c(C(=O)O)c2)c1  class 0
16  CCCCCCCCCCCCCCCCCC(=O)Nc1ccc(CC(=O)Nc2ccc(SC)c(C(=O)O)c2)cc1  class 1
17  CCCCCCCCCCCCCCCCCCOc1ccc(CC(=O)Nc2ccc(SCC)c(C(=O)O)c2)cc1  class 0
18  CCCCCCCCCCCCCCCCCCOc1ccc(CCC(=O)Nc2cc(C(=O)O)ccc2SCc2ccccc2)cc1  class 0
19  CCCCCCCCOc1ccc(OCCCCCCCCCCCC(=O)Nc2ccc(SC)c(C(=O)O)c2)cc1  class 0
20  CCCCCCCCCCCCCCCCCCOc1ccc(CCC(=O)N(Cc2ccccc2)c2ccc(SC)c(C(=O)O)c2)cc1  class 0
21  CCCCCCCCCCCCCCCCCCCCCCOc1ccc(CCC(=O)Nc2ccc(SC)c(C(=O)O)c2)cc1  class 0
22  CCCCCCCCCCCCCCCCCC(=O)Nc1ccc(CCC(=O)Nc2ccc(SC)c(C(=O)O)c2)cc1  class 0
23  CCCCCCCCCCOc1ccc(OCCCCCCCCCC(=O)Nc2ccc(SC)c(C(=O)O)c2)cc1  class 0
24  CCCCCCCCCCCCCCCCCCOc1ccc(CCC(=O)Nc2ccc(SC)c(C(=O)O)c2)cc1OC  class 1
